molecular target: T1, EGFR (Epidermal Growth Factor Receptor) (human, UniProt P00533 26-444, limits assumed); experiment: phage ELISA, wells coated with 4 ug/ml EGFR, anti-M13-HRP
T1 construct: also called EGF receptor
Measure Name: OD at 650 nm (OD)
Dear colleague, please return just the value in OD, with no unit written.

Quick one: OD at 650 nm for clone 55 of the 1OZJ scaffold (designed binder, domain: Smad3-MH1) MSSILPFTPPIVKRLLGWKKGEQNGQEEKWCEKAVKSLVKKLKITGQLDELEKAITTQNVNTKCITIPRSLDGRLQVSHRKGLPHVIYCRLWRWPDLHSHHELRAMKLCRFAFPMKKDEVCVNPYHYQRVETPVLPPVLVPRHT ? 0.964
